Reported inhibition at 0.1 µM values are given for each entry in this list.
test-system: FAAH (Rattus norvegicus, UniProt P97612)
Construct: Preparation of Rat Brain Membranes Preparations (FAAH Enzyme Solution); from tissue; host or cells: rat cerebrum (brain membrane preparation)
Sequence (P97612 whole entry): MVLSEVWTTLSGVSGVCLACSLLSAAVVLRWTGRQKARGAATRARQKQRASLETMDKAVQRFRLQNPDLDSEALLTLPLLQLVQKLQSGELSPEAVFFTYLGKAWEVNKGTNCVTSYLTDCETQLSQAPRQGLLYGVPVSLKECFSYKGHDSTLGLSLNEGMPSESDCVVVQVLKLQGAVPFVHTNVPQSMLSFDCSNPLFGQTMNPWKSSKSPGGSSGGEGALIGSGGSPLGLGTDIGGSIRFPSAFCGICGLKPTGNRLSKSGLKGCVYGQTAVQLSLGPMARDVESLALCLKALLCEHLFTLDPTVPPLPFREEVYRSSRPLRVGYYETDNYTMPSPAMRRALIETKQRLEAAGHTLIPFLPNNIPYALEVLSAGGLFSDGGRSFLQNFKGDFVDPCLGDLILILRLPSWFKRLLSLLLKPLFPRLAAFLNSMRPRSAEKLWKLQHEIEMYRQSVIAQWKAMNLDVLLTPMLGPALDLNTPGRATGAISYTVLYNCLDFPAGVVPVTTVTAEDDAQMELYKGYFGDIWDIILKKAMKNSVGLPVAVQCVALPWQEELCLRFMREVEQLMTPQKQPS
test-details: Determination of FAAH inhibitory activity in rat (rat brain membrane preparations, [3H]-anandamide hydrolysis)
Assay type: biochemical
cond: rat brain membrane preparations; 100 nM test substance; read-out: FAAH Inhibition, Inhibition Rate at 100 nM
Experimental: Determination of FAAH Inhibitory Activity in Rat The preparation of rat brain membranes preparations and the determination of FAAH inhibitory activity were carried out according to the Jonsson et al. method [Br. J. Pharmacol., 133, 1263 (2001)]. (1) Preparation of Rat Brain Membranes Preparations (FAAH Enzyme Solution) The cerebrum was extracted from rats and was freeze-stored at −80° C. […]

mol | test-system | inhibition at 0.1 µM
COCCN(C)C(=O)n1c(=O)n(C)c2nc(-c3ccccc3)ncc21 | FAAH (Rattus norvegicus, UniProt P97612) | 98%
COc1cccc(-c2ncc3c(n2)n(C)c(=O)n3C(=O)N(C)Cc2ccccc2)c1 | FAAH (Rattus norvegicus, UniProt P97612) | 93%
Cn1c(=O)n(C(=O)N2CCCC2)c2cnc(-c3cccc(OC(F)(F)F)c3)nc21 | FAAH (Rattus norvegicus, UniProt P97612) | 81%
CCOC(=O)CN(C)C(=O)n1c(=O)n(C)c2nc(-c3ccccc3)ncc21 | FAAH (Rattus norvegicus, UniProt P97612) | 91%
CN(C)C(=O)n1c(=O)n(C)c2cnc(-c3ccc(C(F)(F)F)cc3Cl)nc21 | FAAH (Rattus norvegicus, UniProt P97612) | 80%
COc1ccc(/C=C/c2ncc3c(n2)n(C(=O)N2CCCC2)c(=O)n3C)cc1 | FAAH (Rattus norvegicus, UniProt P97612) | 40%
O=C(N1CCCC1)n1c(=O)n(CCO)c2nc(-c3ccccc3)ncc21 | FAAH (Rattus norvegicus, UniProt P97612) | 94%

Numbers sourced from patent US8735406B2.
